Biological target: UniProt Q15858
Sequence (Q15858 other isoform, or with tags, fused parts or gaps): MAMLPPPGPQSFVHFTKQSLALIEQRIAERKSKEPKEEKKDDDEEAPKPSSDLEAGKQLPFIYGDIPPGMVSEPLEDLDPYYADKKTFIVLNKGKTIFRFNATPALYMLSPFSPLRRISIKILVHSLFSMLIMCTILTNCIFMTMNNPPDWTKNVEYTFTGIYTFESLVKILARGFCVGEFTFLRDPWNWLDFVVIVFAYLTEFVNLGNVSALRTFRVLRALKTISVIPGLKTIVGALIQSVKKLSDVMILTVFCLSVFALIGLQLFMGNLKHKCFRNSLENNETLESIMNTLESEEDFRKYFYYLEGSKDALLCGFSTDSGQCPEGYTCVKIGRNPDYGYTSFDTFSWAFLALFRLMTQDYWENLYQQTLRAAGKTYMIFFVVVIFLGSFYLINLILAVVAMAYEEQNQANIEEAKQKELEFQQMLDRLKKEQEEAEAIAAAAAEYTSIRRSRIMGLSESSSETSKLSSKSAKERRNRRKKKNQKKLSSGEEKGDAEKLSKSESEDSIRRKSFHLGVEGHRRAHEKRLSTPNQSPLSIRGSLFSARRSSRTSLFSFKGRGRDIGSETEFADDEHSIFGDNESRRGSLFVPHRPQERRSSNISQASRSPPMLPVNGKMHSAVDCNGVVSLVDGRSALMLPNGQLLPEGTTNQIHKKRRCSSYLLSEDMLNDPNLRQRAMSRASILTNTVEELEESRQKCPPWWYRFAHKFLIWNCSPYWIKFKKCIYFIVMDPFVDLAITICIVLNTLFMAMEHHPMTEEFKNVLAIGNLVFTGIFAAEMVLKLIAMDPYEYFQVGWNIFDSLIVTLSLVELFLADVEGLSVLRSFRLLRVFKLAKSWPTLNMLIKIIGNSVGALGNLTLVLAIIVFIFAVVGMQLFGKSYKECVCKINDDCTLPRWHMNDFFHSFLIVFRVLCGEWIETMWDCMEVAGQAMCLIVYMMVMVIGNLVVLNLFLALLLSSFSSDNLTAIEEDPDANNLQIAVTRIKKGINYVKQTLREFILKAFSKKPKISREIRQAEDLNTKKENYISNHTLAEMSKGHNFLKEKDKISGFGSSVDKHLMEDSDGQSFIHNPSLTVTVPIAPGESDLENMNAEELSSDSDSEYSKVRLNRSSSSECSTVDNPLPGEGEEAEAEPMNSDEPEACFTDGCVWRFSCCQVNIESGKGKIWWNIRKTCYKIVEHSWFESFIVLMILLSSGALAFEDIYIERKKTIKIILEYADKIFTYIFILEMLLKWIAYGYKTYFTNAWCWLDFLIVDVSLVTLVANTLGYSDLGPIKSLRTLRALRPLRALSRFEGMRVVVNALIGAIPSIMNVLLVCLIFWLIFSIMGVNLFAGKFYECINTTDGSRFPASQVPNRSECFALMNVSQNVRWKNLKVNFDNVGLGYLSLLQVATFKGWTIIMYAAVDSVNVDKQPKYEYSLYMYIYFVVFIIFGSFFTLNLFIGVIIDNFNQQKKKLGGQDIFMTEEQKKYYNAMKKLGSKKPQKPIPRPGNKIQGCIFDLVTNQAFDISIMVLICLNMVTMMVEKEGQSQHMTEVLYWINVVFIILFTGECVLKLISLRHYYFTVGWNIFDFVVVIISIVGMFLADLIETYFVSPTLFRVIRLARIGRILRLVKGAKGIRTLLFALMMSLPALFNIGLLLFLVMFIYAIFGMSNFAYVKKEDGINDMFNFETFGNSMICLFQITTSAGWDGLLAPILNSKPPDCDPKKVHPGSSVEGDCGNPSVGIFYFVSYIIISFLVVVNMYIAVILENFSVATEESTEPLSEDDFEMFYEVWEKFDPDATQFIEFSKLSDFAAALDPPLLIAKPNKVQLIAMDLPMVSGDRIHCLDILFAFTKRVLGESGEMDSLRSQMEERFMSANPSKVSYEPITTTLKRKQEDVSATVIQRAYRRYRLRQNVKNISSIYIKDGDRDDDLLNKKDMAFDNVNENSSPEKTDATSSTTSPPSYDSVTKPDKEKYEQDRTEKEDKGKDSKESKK
Sequence (Q07699 19-218 partner): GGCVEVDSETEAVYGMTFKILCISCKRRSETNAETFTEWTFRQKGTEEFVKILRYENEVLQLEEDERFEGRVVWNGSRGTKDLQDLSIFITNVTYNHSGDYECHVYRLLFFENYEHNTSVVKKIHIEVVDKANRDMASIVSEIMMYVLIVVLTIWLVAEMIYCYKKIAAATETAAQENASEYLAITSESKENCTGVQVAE
Assay: Tritiated sulfonamide competitive binding to membranes from cells expressing hNav1.7 and the β1 subunit;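 note: Filter-bound radioactivity counted by liquid scintillation, nonspecific binding defined with excess unlabelled ligand, IC50 fitted to percent inhibition of specific binding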
Conditions: read-out: Ligand Binding Assay; 100 pM [3H]compound, membranes with hNav1.7 and β1 subunit, 18 h, room temperature
Counter-ions that a name gives are not always drawn.
Strictly below 4 nM in IC50: 1.0. Otherwise: 0.0.

> print(dat)
                                    compound  cat
 1  C[C@H](c1cc(Cl)cc(Cl)c1)N1CCC(F)(COc2cc(F)c(C(=O)NS(C)(=O)=O)cc2C2CC2)CC1  0.0
 2  CC(C)Oc1ncc([C@@H](c2ccccc2)N2CC(COc3cc(F)c(C(=O)NS(C)(=O)=O)cc3C3CC3)C2)cc1Cl  0.0
 3  CS(=O)(=O)NC(=O)c1cc(C2CC2)c(OCC2CCN(c3cc(C(F)(F)F)c(Cl)cn3)CC2)cc1F  1.0
 4  CC(c1cc(Cl)cc(Cl)c1)N1CCC(COc2cc(F)c(C(=O)NS(=O)(=O)N3CCC3)cc2C2CC2)CC1 (stereo not shown)  0.0
 5  CCS(=O)(=O)NC(=O)c1cc(C2CC2)c(OCC2CCN(Cc3cc(C(F)(F)F)cc(C4CC4)n3)CC2)cc1F  0.0
 6  CC1(COc2cc(F)c(C(=O)NS(=O)(=O)C3CC3)cc2C2CC2)CCN(c2cc(C(F)(F)F)c(Cl)cn2)CC1  1.0
 7  C[C@H](c1ccc(Cl)c(Cl)c1)N1CCC(COc2cc(F)c(C(=O)NS(C)(=O)=O)cc2C2CC2)CC1 (single isomer, unassigned)  1.0
 8  CS(=O)(=O)NC(=O)c1cc(C2CC2)c(OCC2CN(S(=O)(=O)c3cc(Cl)cc(Cl)c3)C2)cc1F  0.0
 9  CCS(=O)(=O)NC(=O)c1cc(C2CC2)c(OCC2CCN([C@H](C)c3ccc(Cl)cc3Cl)CC2)cc1F  1.0
10  COC[C@@](C)(c1cc(Cl)cc(Cl)c1)N1CCC(COc2cc(F)c(C(=O)NS(C)(=O)=O)cc2C2CC2)CC1 (single isomer, unassigned)  0.0
11  CS(=O)(=O)NC(=O)c1cc(C2CC2)c(CN2CCO[C@H](Cc3ccc(F)cc3Cl)C2)cc1F [Example 466, trifluoroacetic acid salt]  0.0
